Test system: HCT-15 colon
Assay: NCI tumour cell line growth inhibition, 48 h; in the data active means GI50 below about 0.43 µM; inactive means the rest
API: response.call in true (active), false (inactive)

Would you please look over these solved cases?
CC[N+](CC)=c1sc2c(s1)C(c1ccc(Cl)cc1)Oc1ccc(Cl)cc1-2 (configuration not stated) : false
COc1ccc(C(=O)/C=C/c2ccc(C)cc2)cc1OC : false
Cc1nn(-c2nc3ccccc3[nH]2)c(N)c1-c1ccc(Cl)cc1 : false
Cc1sc2nc(-c3ccncc3)c(/C=N/N=C(N)N)n2c1C : false
COc1ccc2c(c1)C(=O)c1c-2n(CCCN=[N+]=[N-])c(=O)c2cc(OC)c(OC)cc12 : false
O=C(Nc1cccc(-n2ccc3c(NC(=O)c4ccccc4)nccc32)c1)Nc1cc(C(F)(F)F)cc(C(F)(F)F)c1 : false

## Task What call does the record list for CC(C)(C)C(=O)c1c(C(F)(F)F)n([O-])c2ccccc2[n+]1=O ?
## Result true
